- Tested on: mu opiate receptor (MOR)
- assay.notes: MOR agonist activity using [35S]GTPγS binding assay in striatal membranes
- Format: biochemical
- experimental.conditions: Series C-2; 1 μM compound + β-FNA, relative to DAMGO + BFNA
Recorded % DAMGO + BFNA for the following compounds
Give just the number in %; leave the unit off.

compound="CN1CCC2(CC1)NC(=O)CN2Cc1ccccc1 [Compound C0104M]" endpoint_value=296.5
compound="CC(=O)c1ccc(S(=O)(=O)N2CC(CN(C)C)OC23CCNCC3)cc1 (stereo not shown) [Compound C0118M]" endpoint_value=163.3
compound="COc1ccc(S(=O)(=O)N2CCOC23CCCNC3)cc1 (stereo not shown) [Compound C0145M-3]" endpoint_value=95.3

With those in mind, consider the next compound.
Enquiry: Find the measured % DAMGO + BFNA: item "O=[N+]([O-])c1ccc(S(=O)(=O)N2CCC3(CC2)NCCS3)cc1" , target or system mu opiate receptor (MOR).
Return: 356.0
